B1: ANKRD40 (parent)
chain: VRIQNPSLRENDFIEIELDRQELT

# Variants of: B1
# protocol-description: protein stability index of a GFP-peptide fusion (GPS, HEK-293T) (PSI 1-6); higher = more stable;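 also: lentivirally expressed fusions sorted by FACS into six bins by GFP to DsRed ratio, PSI derived from sequencing read proportions per bin multiplied by bin number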
# applied-conditions: c terminus: a fixed tail appended
Item-by-item account of protein stability index

Field: example entries. Status: answers known.
1) E10V | 2.05
2) R2N | 4.11
3) F13R | 3.43
4) F13Y | 2.42
5) V1K | 3.97
6) V1M | 2.79
7) E22I | 2.73
8) D12G | 1.68
9) V1C | 3.51
10) L23H | 3.92

According to the records, this variant R20C displays protein stability index of 2.12

Data point: I3L ; protein stability index = 2.75

Kindly note the recorded protein stability index for N11C , which is 1.69

The variant F13K showed protein stability index equal to 3.72

# credit: the supplement of paper PMC10567573
